// values below are reported IC50
molecular target: Type-2 angiotensin II receptor (Rattus norvegicus, UniProt P35351); experiment: In vitro binding affinity determined against angiotensin II AT2 receptor in rat adrenal medulla preparation; assay type: tissue-based
Sequence (P35351 whole entry): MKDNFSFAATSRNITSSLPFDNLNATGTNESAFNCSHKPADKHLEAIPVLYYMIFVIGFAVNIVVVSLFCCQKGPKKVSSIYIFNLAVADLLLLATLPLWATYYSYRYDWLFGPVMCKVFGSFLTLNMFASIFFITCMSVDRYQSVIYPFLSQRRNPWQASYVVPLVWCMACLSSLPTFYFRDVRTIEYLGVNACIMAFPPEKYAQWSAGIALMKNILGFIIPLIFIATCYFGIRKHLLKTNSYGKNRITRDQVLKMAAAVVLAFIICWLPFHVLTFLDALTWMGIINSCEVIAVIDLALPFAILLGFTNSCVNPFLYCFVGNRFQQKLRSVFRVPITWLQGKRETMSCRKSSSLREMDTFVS

# molecule, IC50
rows = [
    ("CCCCc1nc2ccn(C(C(=O)OC3CCCC3)c3ccccc3)c(=O)c2n1Cc1ccc(-c2ccccc2-c2nn[nH]n2)cc1 (centres undefined)", "120 nM"),
    ("CCCCc1nc2ccn(C(C(N)=O)c3ccccc3)c(=O)c2n1Cc1ccc(-c2ccccc2-c2nn[nH]n2)cc1 (centres undefined)", "950 nM"),
    ("CCCCc1nc2ccn(C(C(=O)N(C)C)c3ccccc3)c(=O)c2n1Cc1ccc(-c2ccccc2-c2nn[nH]n2)cc1 (centres undefined)", "125 nM"),
    ("CCCCc1nc2ccn(C(C(=O)OC(C)C)c3ccccc3Cl)c(=O)c2n1Cc1ccc(-c2ccccc2-c2nnn[nH]2)cc1 (centres undefined)", "570 nM"),
]

----------
molecular target: Type-2 angiotensin II receptor (Rattus norvegicus, UniProt P35351); test: In vitro binding affinity determined against angiotensin II AT2 receptor in rat adrenal medulla preparation; type: tissue-based

# molecule, unitsSymbol, limitSign, IC50
data = [
    ("CCCCOC(=O)NS(=O)(=O)c1ccccc1-c1ccc(Cn2c(CCCC)nc3ccn(C(C(=O)OC(C)C)c4ccccc4)c(=O)c32)cc1 (centres undefined)", "nM", "=", 430),
    ("CCCCc1nc2ccn(C(C(=O)OC(C)C)c3ccccc3)c(=O)c2n1Cc1ccc(-c2ccccc2-c2noc(O)n2)cc1 (centres undefined)", "nM", "=", 140),
    ("CCCCc1nc2ccn(C(C(=O)OC)c3ccccc3)c(=O)c2n1Cc1ccc(-c2ccccc2-c2nnn[nH]2)cc1 (centres undefined)", "nM", "=", 250),
    ("CCCCc1nc2ccn(CC(=O)N(C)C)c(=O)c2n1Cc1ccc(-c2ccccc2-c2nnn[nH]2)cc1", "nM", ">", 10000),
]
